Origin of the recorded values: patent US10233191B2

# experimental_target: NaV 1.7 (Homo sapiens)
# protocol_text: E-VIPR optical membrane potential assay with electrical stimulation
# assay_context: active against one or more sodium channels; assay/subtype not specified in Table 4; read-out: IC50 Binned Activity Data
pIC50: −log10 of the molar value.
assay_endpoint: pIC50

>  <compound>
COc1ccnc([C@]23CCN(C(=O)c4ccc(OCC5CC(F)(F)C5)c(OC)c4)CC2OCO3)c1 (some centres unmarked)

>  <experimental_target>
NaV 1.7 (Homo sapiens)

>  <endpoint_value>
≥ 5.70

$$$$
>  <compound>
COc1cccnc1[C@]12CCN(C(=O)c3ccc(OCCOC(F)(F)F)c(C)c3)CC1OCO2 (some centres unmarked)

>  <experimental_target>
NaV 1.7 (Homo sapiens)

>  <endpoint_value>
≥ 5.70

$$$$
>  <compound>
O=C(c1ccc(S(=O)(=O)NC2CC2)cc1)N1CCC2(c3ccccc3)CC2C1 (centres unmarked)

>  <experimental_target>
NaV 1.7 (Homo sapiens)

>  <endpoint_value>
5.30 to 5.70

$$$$
>  <compound>
O=C(c1cccc2cccnc12)N1CC[C@@]2(c3ccccc3)OCOC2C1 (some centres unmarked)

>  <experimental_target>
NaV 1.7 (Homo sapiens)

>  <endpoint_value>
5.30 to 5.70

$$$$
>  <compound>
CCOc1nc(C(=O)N2CC[C@]3(c4csc(C)n4)OCOC3C2)ccc1OCCOC(F)(F)F (some centres unmarked)

>  <experimental_target>
NaV 1.7 (Homo sapiens)

>  <endpoint_value>
≥ 5.70

$$$$
>  <compound>
Cc1cc(C(=O)N2CC[C@@]3(c4nccs4)OCOC3C2)ccc1OCC(C)(C)F (some centres unmarked)

>  <experimental_target>
NaV 1.7 (Homo sapiens)

>  <endpoint_value>
≥ 5.70

$$$$
>  <compound>
COc1nc(C(=O)N2CC[C@]3(c4cccc(C(F)(F)F)n4)OCOC3C2)ccc1OCCOC(F)(F)F (some centres unmarked)

>  <experimental_target>
NaV 1.7 (Homo sapiens)

>  <endpoint_value>
≥ 5.70

$$$$
>  <compound>
Cc1cc(C(=O)N2CC[C@@]3(c4ccccc4)OCOC3C2)ccc1OCC(C)(C)F (some centres unmarked)

>  <experimental_target>
NaV 1.7 (Homo sapiens)

>  <endpoint_value>
≥ 5.70

$$$$

====

# experimental_target: NaV 1.7 (Homo sapiens, UniProt Q15858)
# Sequence (Q15858 whole entry): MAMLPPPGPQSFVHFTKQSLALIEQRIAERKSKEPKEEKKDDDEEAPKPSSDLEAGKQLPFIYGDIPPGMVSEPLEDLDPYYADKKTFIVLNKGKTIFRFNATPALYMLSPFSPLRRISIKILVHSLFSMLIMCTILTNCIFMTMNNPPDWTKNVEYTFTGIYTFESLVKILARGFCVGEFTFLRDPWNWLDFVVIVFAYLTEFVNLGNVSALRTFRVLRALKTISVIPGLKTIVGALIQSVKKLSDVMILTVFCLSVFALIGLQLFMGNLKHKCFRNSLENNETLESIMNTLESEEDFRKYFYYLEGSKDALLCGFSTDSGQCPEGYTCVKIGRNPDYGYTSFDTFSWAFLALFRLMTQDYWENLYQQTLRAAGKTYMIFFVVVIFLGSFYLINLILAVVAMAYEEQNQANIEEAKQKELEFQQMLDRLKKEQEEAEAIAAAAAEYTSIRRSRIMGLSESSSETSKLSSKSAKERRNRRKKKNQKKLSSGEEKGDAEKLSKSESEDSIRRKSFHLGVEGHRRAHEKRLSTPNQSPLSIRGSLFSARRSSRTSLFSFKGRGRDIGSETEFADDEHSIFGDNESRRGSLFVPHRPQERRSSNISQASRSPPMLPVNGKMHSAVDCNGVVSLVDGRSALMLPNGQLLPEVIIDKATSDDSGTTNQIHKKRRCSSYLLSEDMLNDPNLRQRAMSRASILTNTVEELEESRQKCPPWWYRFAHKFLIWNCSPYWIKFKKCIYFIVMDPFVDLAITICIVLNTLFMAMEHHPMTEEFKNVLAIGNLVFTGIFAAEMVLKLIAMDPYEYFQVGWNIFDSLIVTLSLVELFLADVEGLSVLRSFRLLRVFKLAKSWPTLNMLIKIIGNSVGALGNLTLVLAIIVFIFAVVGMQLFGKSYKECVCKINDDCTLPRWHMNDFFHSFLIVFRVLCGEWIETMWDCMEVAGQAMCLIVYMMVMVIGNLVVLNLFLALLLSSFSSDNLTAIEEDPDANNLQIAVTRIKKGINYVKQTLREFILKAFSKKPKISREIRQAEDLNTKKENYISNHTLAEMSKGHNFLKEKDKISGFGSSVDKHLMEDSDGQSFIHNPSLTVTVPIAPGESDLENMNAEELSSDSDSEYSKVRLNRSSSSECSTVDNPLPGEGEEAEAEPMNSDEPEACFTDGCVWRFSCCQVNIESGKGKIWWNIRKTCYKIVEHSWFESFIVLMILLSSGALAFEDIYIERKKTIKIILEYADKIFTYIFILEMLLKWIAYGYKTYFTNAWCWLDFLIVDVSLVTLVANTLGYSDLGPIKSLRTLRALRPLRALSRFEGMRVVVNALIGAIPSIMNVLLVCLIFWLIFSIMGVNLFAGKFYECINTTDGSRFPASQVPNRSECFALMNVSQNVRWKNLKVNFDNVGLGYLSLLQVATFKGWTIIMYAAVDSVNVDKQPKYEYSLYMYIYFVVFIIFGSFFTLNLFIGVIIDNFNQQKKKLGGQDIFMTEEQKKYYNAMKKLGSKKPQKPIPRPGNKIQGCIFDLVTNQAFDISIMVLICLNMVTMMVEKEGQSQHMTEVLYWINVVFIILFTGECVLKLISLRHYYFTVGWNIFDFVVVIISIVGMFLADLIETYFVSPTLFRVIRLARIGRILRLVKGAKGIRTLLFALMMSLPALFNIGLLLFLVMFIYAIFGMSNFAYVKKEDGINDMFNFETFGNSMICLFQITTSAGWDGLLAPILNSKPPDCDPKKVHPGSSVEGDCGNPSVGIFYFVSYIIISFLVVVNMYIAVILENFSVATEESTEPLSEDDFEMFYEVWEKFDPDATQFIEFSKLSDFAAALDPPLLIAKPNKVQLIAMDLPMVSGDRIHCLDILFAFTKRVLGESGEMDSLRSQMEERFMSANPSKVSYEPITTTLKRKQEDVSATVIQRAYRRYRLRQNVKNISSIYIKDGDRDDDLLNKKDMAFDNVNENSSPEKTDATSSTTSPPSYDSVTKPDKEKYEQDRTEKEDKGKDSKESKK
# protocol_text: E-VIPR optical membrane potential assay with electrical stimulation
# assay_context: active against one or more sodium channels; assay/subtype not specified in Table 4; read-out: IC50 Binned Activity Data
pIC50: −log10 of the molar value.

>  <compound>
COc1cc(C(=O)N2CCC3(c4ccc(F)cc4)CC3C2)ccc1OCC1CC(F)(F)C1 (centres unmarked)

>  <pIC50>
≥ 5.70

$$$$
>  <compound>
COc1nc(C(=O)N2CC[C@]3(c4cccc(F)c4)OCOC3C2)ccc1OC1CC=CC1 (some centres unmarked)

>  <pIC50>
≥ 5.70

$$$$
>  <compound>
Cc1cc(C(=O)N2CC[C@@]3(c4ccccc4)OCOC3C2)ccc1C(C)(C)O (some centres unmarked)

>  <pIC50>
< 5.30

$$$$
>  <compound>
COc1cc(C(=O)N2CC[C@@]3(c4ccccn4)COC3C2)ccc1OCC1CC(F)(F)C1 (some centres unmarked)

>  <pIC50>
5.30 to 5.70

$$$$
>  <compound>
Cc1cc(C(=O)N2CC[C@]3(c4ncccc4F)OCOC3C2)ccc1OCCOC(F)(F)F (some centres unmarked)

>  <pIC50>
≥ 5.70

$$$$
>  <compound>
CC(C)(O)c1ccc(C(=O)N2CCC3(c4ccccc4)CC3C2)cc1F (centres unmarked)

>  <pIC50>
< 5.30

$$$$
>  <compound>
O=C(c1cccc2c1OCC2)N1CCC2(c3ccccc3)CC2C1 (centres unmarked)

>  <pIC50>
5.30 to 5.70

$$$$
>  <compound>
COc1cc(C(=O)N2CC[C@]3(c4cc(C(F)(F)F)ccn4)OCOC3C2)ccc1OCC1CC(F)(F)C1 (some centres unmarked)

>  <pIC50>
≥ 5.70

$$$$
